src = patent EP3290412A1

# Tested on: HeLa cells
# test description: HeLa Proliferation assay (CellTiter Glo)
# Format: cell-based
# condition label: 72 hours
# Proliferation assay HELA TD50 >= 3 µM gives YES, anything below gives NO

compound	experimental target	group
C[C@@H](NC(=O)c1nc(-c2ccc(C(=O)NCc3ccccc3)cn2)nc(O)c1O)C1CCCCC1 [Compound 50]	HeLa cells	NO
C[C@@H](NC(=O)c1nc(-c2ccc(CNCc3ccccc3)cn2)nc(O)c1O)C1CCCCC1 [Compound 53]	HeLa cells	NO
O=C(OCCC1CCCCC1)c1nc(-c2ccccn2)nc(O)c1O [Compound 12]	HeLa cells	YES
O=C(NCCCC1CCCCC1)c1nc(-c2ccccn2)nc(O)c1O [Compound 8]	HeLa cells	YES
C[C@@H](NC(=O)c1nc(-c2ccc(NC(=O)OC(C)(C)C)cn2)nc(O)c1O)C1CCCCC1 [Compound 61]	HeLa cells	NO
COc1ccnc(-c2nc(O)c(O)c(C(=O)N[C@@H](C)C3CCCCC3)n2)c1 [Compound 69]	HeLa cells	YES
C[C@H](NC(=O)c1nc(-c2cc(Cl)ccn2)nc(O)c1O)C1CCCCC1 [Compound 78]	HeLa cells	NO
C[C@@H](NC(=O)c1nc(-c2cccc(C(=O)OCc3ccccc3)n2)nc(O)c1O)C1CCCCC1 [Compound 54]	HeLa cells	YES
C[C@@H](NC(=O)c1nc(-c2ccc(NC(=O)c3cnco3)cn2)nc(O)c1O)C1CCCCC1 [Compound 82]	HeLa cells	YES
O=C(OCC1CCCCC1)c1nc(-c2ncccc2Cl)nc(O)c1O [Compound 15]	HeLa cells	YES
Cc1cccnc1-c1nc(O)c(O)c(C(=O)N[C@@H](C)C2CCCCC2)n1 [Compound 39]	HeLa cells	NO
O=C(OCC1CCCCC1)c1nc(-c2ccccn2)nc(O)c1O [Compound 2]	HeLa cells	YES
C[C@H](NC(=O)c1nc(-c2cc3ccccc3cn2)nc(O)c1O)C1CCCCC1 [Compound 72]	HeLa cells	YES
COc1cccc(-c2nc(O)c(O)c(C(=O)N[C@H](C)C3CCCCC3)n2)n1 [Compound 37]	HeLa cells	NO
COc1ccnc(-c2nc(O)c(O)c(C(=O)N[C@H](C)C3CCCCC3)n2)c1 [Compound 28]	HeLa cells	NO
C[C@@H](NC(=O)c1nc(-c2cccc(N)n2)nc(O)c1O)C1CCCCC1 [Compound 45]	HeLa cells	YES
CC(OC(=O)c1nc(-c2ccccn2)nc(O)c1O)C1CCCCC1 (centres unmarked) [Compound 17]	HeLa cells	YES

* * *

# System: HeLa cells
# test description: HeLa Proliferation assay (CellTiter Glo)
# Format: cell-based
# condition label: 72 hours
# Text: […]
Label rule met when Proliferation assay HELA TD50 is strictly below 4 µM; at or above that, label rule not met.

molecule	experimental target	group
C[C@H](NC(=O)c1nc(-c2nccc3[nH]ccc23)nc(O)c1O)C1CCCCC1 [Compound 86]	HeLa cells	rule met
C[C@@H](NC(=O)c1nc(-c2cc(C(=O)NCc3ccccc3)ccn2)nc(O)c1O)C1CCCCC1 [Compound 74]	HeLa cells	rule met
CC(=O)Nc1ccc(-c2nc(O)c(O)c(C(=O)N[C@H](C)C3CCCCC3)n2)nc1 [Compound 62]	HeLa cells	rule not met
Cc1ccnc(-c2nc(O)c(O)c(C(=O)N[C@@H](C)C3CCCCC3)n2)c1 [Compound 79]	HeLa cells	rule met
O=C(OCCCC1CCCCC1)c1nc(-c2ccccn2)nc(O)c1O [Compound 14]	HeLa cells	rule not met
C[C@@H](NC(=O)c1nc(-c2cc(Cl)ccn2)nc(O)c1O)C1CCCCC1 [Compound 26]	HeLa cells	rule met
COc1ccnc(-c2nc(O)c(O)c(C(=O)NC3CCC(C)(C)CC3)n2)c1 [Compound 77]	HeLa cells	rule met
C[C@H](NC(=O)c1nc(-c2cc(C(F)(F)F)ccn2)nc(O)c1O)C1CCCCC1 [Compound 52]	HeLa cells	rule not met

* * *

A collection of compounds and their measured pIC50
# experimental target: NC(11-55) (Human immunodeficiency virus type 1, UniProt P12493)
# test description: NC inhibition assay (NC-induced cTAR DNA destabilization, fluorescence)
# Assay type: biochemical, HIV-1
pIC50: −log10 of the molar value.

compound	pIC50
O=C(NCCC1CCCCC1)c1nc(-c2ccccn2)nc(O)c1O [Compound 6]	4.43
C[C@@H](NC(=O)c1nc(-c2ccc(Cl)cn2)nc(O)c1O)C1CCCCC1 [Compound 49]	5.05
O=C(NCC1CCCCC1)c1nc(-c2ccccn2)nc(O)c1O [Compound 1]	3.78
COc1ccnc(-c2nc(O)c(O)c(C(=O)N[C@H](C)C3CCCCC3)n2)c1 [Compound 28]	4.66
CC1CCC(NC(=O)c2nc(-c3ccccn3)nc(O)c2O)CC1 (stereo not drawn) [Compound 56]	4.46
C[C@@H](NC(=O)c1nc(-c2cc(N3CCN(C)CC3)ccn2)nc(O)c1O)C1CCCCC1 [Compound 76]	5.15
O=C(NCCCC1CCCCC1)c1nc(-c2ccccn2)nc(O)c1O [Compound 8]	4.56
Cc1cccnc1-c1nc(O)c(O)c(C(=O)OCC2CCCCC2)n1 [Compound 10]	4.26
C[C@@H](NC(=O)c1nc(-c2ccc(N)cn2)nc(O)c1O)C1CCCCC1 [Compound 20]	5.52

* * *

# experimental target: NC(11-55) (Human immunodeficiency virus type 1)
# test description: NC inhibition assay (NC-induced cTAR DNA destabilization, fluorescence)
# Type: biochemical, HIV-1
Below, each entry is listed alongside its reported IC50.
assay endpoint: IC50 (µM)

compound	readout value
COc1ccc2nc(-c3nc(O)c(O)c(C(=O)N[C@H](C)C4CCCCC4)n3)ccc2c1 [Compound 66]	8
CC(NC(=O)c1nc(-c2ccccn2)nc(O)c1O)C1CCCC1 (centres unmarked) [Compound 65]	47
O=C(NC1CCCCC1)c1nc(-c2ccccn2)nc(O)c1O [Compound 4]	320
C[C@@H](NC(=O)c1nc(-c2ccc(CN3CCCC3)cn2)nc(O)c1O)C1CCCCC1 [Compound 93]	50
C[C@@H](NC(=O)c1nc(-c2cc(CCN)ccn2)nc(O)c1O)C1CCCCC1 [Compound 88]	7.5

* * *

# System: Peripheral blood mononuclear cells (PBMC)
# Format: cell-based
# condition label: human, 7 days

compound	Proliferation assay PBMC TD50 (µM)
O=C(NCCC1CCCC1)c1nc(-c2ccccn2)nc(O)c1O [Compound 43]	8.09
CC1CCC(NC(=O)c2nc(-c3ccccn3)nc(O)c2O)CC1 (stereo not drawn) [Compound 56]	4.6
C[C@@H](NC(=O)c1nc(-c2ccc(CN3CCCC3)cn2)nc(O)c1O)C1CCCCC1 [Compound 93]	1.87
Cc1cccc(-c2nc(O)c(O)c(C(=O)N[C@H](C)C3CCCCC3)n2)n1 [Compound 18]	2.4
C[C@@H](NC(=O)c1nc(-c2cccc(Cl)n2)nc(O)c1O)C1CCCCC1 [Compound 34]	5.88
Cc1cccnc1-c1nc(O)c(O)c(C(=O)OCC2CCCCC2)n1 [Compound 10]	8.1
COc1ccc(-c2nc(O)c(O)c(C(=O)N[C@H](C)C3CCCCC3)n2)nc1 [Compound 32]	3
C[C@@H](NC(=O)c1nc(-c2ccc(N)cn2)nc(O)c1O)C1CCCCC1 [Compound 20]	1.65
C[C@@H](NC(=O)c1nc(-c2ccc(C(N)=O)cn2)nc(O)c1O)C1CCCCC1 [Compound 51]	8

* * *

Each entry below lists one item and its recorded Fold change 7401 (NRTI) value.
# Tested on: ARP clone 7401 (NRTI)
# test description: BiCycle assay, resistant viral strain
# Type: cell-based, HIV-1
# condition label: IC50 resistant strain / IC50 wild type NL4-3, BiCycle Assay

compound	Fold change 7401 (NRTI)
COc1ccnc(-c2nc(O)c(O)c(C(=O)N[C@H](C)C3CCCCC3)n2)c1 [Compound 28]	0.8
Cc1cccnc1-c1nc(O)c(O)c(C(=O)N[C@H](C)C2CCCCC2)n1 [Compound 23]	1.4
C[C@@H](NC(=O)c1nc(-c2cc(Cl)ccn2)nc(O)c1O)C1CCCCC1 [Compound 26]	0.1
C[C@@H](NC(=O)c1nc(-c2nccc3ccccc23)nc(O)c1O)C1CCCCC1 [Compound 31]	1.3

* * *

Reported log10(IC50) values for a set of compounds
# experimental target: NC(11-55) (Human immunodeficiency virus type 1, UniProt P12493)
# test description: NC inhibition assay (NC-induced cTAR DNA destabilization, fluorescence)
# Format: biochemical, HIV-1
assay endpoint: log10(IC50) (log10 of the value in µM)

compound	log10(IC50)
C[C@@H](NC(=O)c1nc(-c2cc3ccccc3cn2)nc(O)c1O)C1CCCCC1	0.48
O=C(OC1CCCCC1)c1nc(-c2ccccn2)nc(O)c1O	2.37
CCNS(=O)(=O)c1ccc(-c2nc(O)c(O)c(C(=O)N[C@H](C)C3CCCCC3)n2)nc1	1.45
CC1CCCC(NC(=O)c2nc(-c3ccccn3)nc(O)c2O)C1 (stereo not shown)	1.55
C[C@H](NC(=O)c1nc(-c2ccc(N)cn2)nc(O)c1O)C1CCCCC1	1.34
O=C(NC1(C2CCCCC2)CC1)c1nc(-c2ccccn2)nc(O)c1O	1.35
C[C@@H](NC(=O)c1nc(-c2nccc3ccccc23)nc(O)c1O)C1CCCCC1	0.54
